B1: EF-hand domain-containing protein 1 (Homo sapiens), Q5JVL4 (parent)
chain: MVSNPVHGLPFLPGTSFKDSTKTAFHRSQTLSYRNGYAIVRRPTVGIGGDRLQFNQLSQAELDELASKAPVLTYGQPKQAPPADFIPAHVAFDKKVLKFDAYFQEDVPMSTEEQYRIRQVNIYYYLEDDSMSVIEPVVENSGILQGKLIKRQRLAKNDRGDHYHWKDLNRGINITIYGKTFRVVDCDQFTQVFLESQGIELNPPEKMALDPYTELRKQPLRKYVTPSDFDQLKQFLTFDKQVLRFYAIWDDTDSMYGECRTYIIHYYLMDDTVEIREVHERNDGRDPFPLLMNRQRVPKVLVENAKNFPQCVLEISDQEVLEWYTAKDFIVGKSLTILGRTFFIYDCDPFTRRYYKEKFGITDLPRIDVSKREPPPVKQELPPYNGFGLVEDSAQNCFALIPKAPKKDVIKMLVNDNKVLRYLAVLESPIPEDKDRRFVFSYFLATDMISIFEPPVRNSGIIGGKYLGRTKVVKPYSTVDNPVYYGPSDFFIGAVIEVFGHRFIILDTDEYVLKYMESNAAQYSPEALASIQNHVRKREAPAPEAESKQTEKDPGVQELEALIDTIQKQLKDHSCKDNIREAFQIYDKEASGYVDRDMFFKICESLNVPVDDSLVKELIRMCSHGEGKINYYNFVRAFSN

Variants of: B1
experimental conditions: with trip6_human TRIP6, Q15654
Sequence (Q15654 whole entry): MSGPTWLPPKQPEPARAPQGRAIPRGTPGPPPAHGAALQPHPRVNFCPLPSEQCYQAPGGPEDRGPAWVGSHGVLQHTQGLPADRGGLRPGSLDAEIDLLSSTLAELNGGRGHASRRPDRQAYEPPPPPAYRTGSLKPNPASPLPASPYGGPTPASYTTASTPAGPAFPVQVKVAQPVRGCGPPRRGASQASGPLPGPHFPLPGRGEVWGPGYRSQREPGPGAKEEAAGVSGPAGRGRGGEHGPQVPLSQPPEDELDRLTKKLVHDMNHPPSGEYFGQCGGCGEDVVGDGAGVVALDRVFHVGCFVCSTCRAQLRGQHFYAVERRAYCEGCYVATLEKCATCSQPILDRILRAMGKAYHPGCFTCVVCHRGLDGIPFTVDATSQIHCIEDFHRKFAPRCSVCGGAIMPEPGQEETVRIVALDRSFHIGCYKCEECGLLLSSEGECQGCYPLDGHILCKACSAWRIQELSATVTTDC
value type: effect of a mutation on the interaction

R159W with no effect
T508R with no effect
M448T with no effect
